# Test system: MRSA strain USA300
# Test name: microbe, parasite or virus in culture
# Stated conditions: Staphylococcus aureus, 6 h, read-out: ELISA α-hemolysin inhibition 1 μg/mL
Reported hemolysis at 1 µg/mL values for the following molecules.
Measure: hemolysis at 1 µg/mL (%)

1) O=C(O)c1c(F)c(F)cc2ccccc12 = 20.8
2) O=C(O)c1cccc(-c2ccccc2)c1O = 49.4
3) O=C(O)c1ccc(-c2ccc(F)cc2)cc1 = 0
4) O=C1Nc2cccc3cc(O)cc1c23 = 28
5) O=C(O)c1ccc(-c2ccc(O)c(F)c2)cc1 = 31.3
6) CCc1cc(C(=O)COc2ccccc2)c(O)cc1O = 55.2
7) COc1cc(C(=O)N/N=C/c2cccc3ccccc23)ccc1O = 23
8) O=C(O)c1cc(-c2ccc(F)cc2F)ccc1O [X, diflunisal, reference compound] = 33
9) O=C(/C=C/c1ccc2c(c1)OCO2)c1ccccc(=O)c1O = 40.2
10) O=C(O)c1c(O)c(O)cc2ccccc12 = 21.3
